Test system: SirT1 levels in N2a-E4 cells
Experiment: SirT1 levels by AlphaLISA in ApoE4-transfected N2a cells
Assay type: cell-based, murine
Experimental: Prompted by the emerging importance of the associations between ApoE4 and the expression/protein levels of SirT1, high-throughput screening (HTS) of the UCLA compound library was performed using AlphaLISA to detect SirT1 levels in murine neuroblastoma cells stably transfected with ApoE4 (E4-N2a) to identify SirT1 enhancers. […]
Structures can show the parent of a compound that is named as a salt.
endpoint label: SirT1 SμM

{"molecule": "C[C@H](N)C(=O)NC(C)(Cc1cc(F)cc(F)c1)Cc1cc(F)cc(F)c1 [MP-106, hydrochloride]", "result": "a, a (a <250%)"}
{"molecule": "CC(C)(Cc1ccc(F)c(F)c1)NC(=O)C1CCCN1C(=O)OC(C)(C)C (stereo not shown) [MP-24]", "result": "a, a (a <250%)"}
{"molecule": "C[C@H](NC(=O)OC(C)(C)C)C(=O)O[C@H]1CCC[C@H]1c1ccc(Cl)cc1 (single isomer, unassigned) [MP-91]", "result": "a, a (a <250%)"}

Hey, just so you know, these numbers are from patent US20240083839A1.
